Data provenance is the kinase profiling compilation of Christmann-Franck et al. (2016).

molecular target: PRKCG (human); assay: radiometric filter-binding kinase assay; details: compound 1.0 µM
REPORTED_PROPERTY: residual activity (%)
Hi! Could you send only the number? It should be in %, unit omitted.

Previously resolved entries follow.
COMPOUND | residual activity [%]
NC(=O)c1c(NC(=O)C2CC2)sc2c1CCCC2 | 98
Cc1cc(NC(=O)c2cccc(NC(=O)/C=C/CN(C)C)c2)ccc1Nc1nccc(-c2cccnc2)n1 | 91
O=C(N[C@@H](COc1ccc2[nH]c(=O)[nH]c2c1)c1ccccc1)c1cccn(Cc2ccc(F)c(F)c2)c1=O | 103
COc1ccc(N(C(=O)Nc2c(C)cccc2C)c2cc(Nc3ccc(N4CCN(C)CC4)cc3)ncn2)c(OC)c1 | 96
CCNc1nc(Nc2cc(F)c(C(=O)N3CCOCC3)cc2OC)ncc1C(F)(F)F | 108
O=C(NOCC(O)CO)c1ccc(F)c(F)c1Nc1ccc(I)cc1Cl (configuration not stated) | 110
Cc1ccc(=O)n(-c2ccccc2)c1 | 99
Cc1nc(-c2ccc(OCC(C)C)c(C#N)c2)sc1C(=O)O | 81

Param readout = residual activity; param system = PRKCG (human); param query = `C=CC(=O)N1CCC[C@@H](n2nc(-c3ccc(Oc4ccccc4)cc3)c3c(N)ncnc32)C1` ; response: value
104

What value of residual activity on PRKCG (human) does `Cc1ccc(-c2ccc3c(ccc4sc5c(c43)NC[C@@H](C)NC5=O)n2)cn1` have?
110

Item: `CC(C)(C#N)c1ccc(N2C(=O)OCc3cnc4ccc(-c5cnc6ccccc6c5)cc4c32)cc1` Test system: PRKCG (human) Read-out: residual activity Value: ?
111

Form entry - test system: PRKCG (human); read-out: residual activity; compound: `CCn1c(-c2nonc2N)nc2cncc(CNC3CCNCC3)c21`
80

----------
biological target: AURKA (human); test: radiometric filter-binding kinase assay; settings: compound 1.0 µM
REPORTED_PROPERTY: residual activity (%)
# unit: % | format: bare number

Solved entries:
COMPOUND | REPORTED_PROPERTY | ASSAY_RESULT
NC(=O)c1c(NC(=O)C2CC2)sc2c1CCCC2 | residual activity | 87
NC(=O)c1ccc(-c2ccc(Oc3cncc4sc(-c5nn[nH]n5)cc34)cc2)cc1 | residual activity | 103
Cc1ccc(Sc2cnc(Nc3cccc(Br)n3)s2)cc1C(=O)N1CCN(C(=O)CN)CC1 | residual activity | 3
CCn1c(-c2nonc2N)nc2cncc(CNC3CCNCC3)c21 | residual activity | 95
Cc1ccc(=O)n(-c2ccccc2)c1 | residual activity | 106
NC(=O)c1cc(-c2ccnc(NC3CCCCC3)c2)nc(N2CCNCC2)c1 | residual activity | 88

# ---- query compound ----
Could you share which residual activity value was measured for CNC(=O)C1[C@H]2O[C@@](C)([C@@H]1N)n1c3ccccc3c3c4c(c5c6ccccc6n2c5c31)C(=O)NC4 (some centres not stated) ?
5

----------
target: TBK1 (human); assay: radiometric filter-binding kinase assay; conditions: compound 10.0 µM
REPORTED_PROPERTY: residual activity (%)
Report as a plain number; the unit % is understood.

COMPOUND | ASSAY_RESULT
O=C(O)c1ccc(-c2c[nH]c3ncc(-c4ccccc4)cc23)cc1C1CCCC1 | 27

Query the reported residual activity for TBK1 (human); item: `O=C(O)c1cc(N=Nc2ccc(S(=O)(=O)Nc3ccccn3)cc2)ccc1O`
99

Field: residual activity (TBK1 (human)). Entry: CC1=C(CO)C(=O)O[C@@H]([C@@H](C)[C@H]2CC[C@H]3[C@@H]4C[C@H]5O[C@]56[C@@H](O)C=CC(=O)[C@]6(C)C4CC[C@]23C)C1 (some centres undefined)
93

Lab note: need residual activity for `Cc1cc(SCc2sc(-c3ccc(C(F)(F)F)cc3)nc2C)ccc1OCC(=O)O` on TBK1 (human), anyone have it?
88

----------
molecular target: IRAK1 (human) (UniProt P51617); test: radiometric filter-binding kinase assay; details: compound 10.0 µM
Sequence (P51617 whole entry, looked up): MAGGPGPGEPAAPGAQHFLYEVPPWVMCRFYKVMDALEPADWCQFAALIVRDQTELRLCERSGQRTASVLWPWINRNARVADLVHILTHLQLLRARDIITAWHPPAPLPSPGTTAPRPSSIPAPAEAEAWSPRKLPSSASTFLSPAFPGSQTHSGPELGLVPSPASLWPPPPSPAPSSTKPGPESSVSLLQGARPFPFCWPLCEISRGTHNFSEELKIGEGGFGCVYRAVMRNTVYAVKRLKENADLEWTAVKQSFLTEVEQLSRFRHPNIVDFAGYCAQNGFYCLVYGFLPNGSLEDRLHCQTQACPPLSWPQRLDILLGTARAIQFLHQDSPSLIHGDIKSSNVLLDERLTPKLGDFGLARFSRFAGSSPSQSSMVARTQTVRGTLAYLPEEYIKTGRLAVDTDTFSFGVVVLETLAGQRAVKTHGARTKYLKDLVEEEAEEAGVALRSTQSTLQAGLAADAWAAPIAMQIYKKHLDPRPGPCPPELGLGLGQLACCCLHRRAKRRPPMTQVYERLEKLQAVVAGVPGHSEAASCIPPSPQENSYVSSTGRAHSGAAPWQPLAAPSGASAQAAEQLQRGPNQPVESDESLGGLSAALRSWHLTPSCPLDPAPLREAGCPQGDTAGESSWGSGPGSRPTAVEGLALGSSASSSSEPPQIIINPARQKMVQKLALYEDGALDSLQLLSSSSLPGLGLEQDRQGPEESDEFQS
REPORTED_PROPERTY: residual activity (%)
Form entry: value (%) — number only.

MOLECULE | MEASURED_TARGET | residual activity, %
CCOC(=O)c1ccc(N2NC(=O)/C(=C/c3ccc([N+](=O)[O-])o3)C2=O)cc1 | IRAK1 (human) (UniProt P51617) | 84
O=C(NOC[C@H](O)CO)c1ccc(F)c(F)c1Nc1ccc(I)cc1Cl | IRAK1 (human) (UniProt P51617) | 89
CNc1nc(-c2ccc3c(N)n[nH]c3c2)cc(N2C[C@@H](C(=O)NC3CCCCC3)CC[C@H]2C)n1 | IRAK1 (human) (UniProt P51617) | 106

Endpoint output: residual activity of `NC(=O)c1cc(-c2ccnc(NC3CCCCC3)c2)nc(N2CCNCC2)c1` . Value?
87

Dear colleague, I am looking for the recorded residual activity of the following molecule: `COc1cc(C(=O)N2CCOCC2)c(F)cc1Nc1ncc(C(F)(F)F)c(NC2CC2)n1`
94

May I ask what residual activity has been recorded for O=C(NOCC(O)CO)c1ccc(F)c(F)c1Nc1ccc(I)cc1Cl (stereo not drawn) ?
79

----------
Below, each of the compounds is paired with its reported residual activity value.
target: MAP2K1 (human) (UniProt Q02750); experiment: radiometric filter-binding kinase assay; conditions: compound 10.0 µM
Sequence (Q02750 whole entry, looked up): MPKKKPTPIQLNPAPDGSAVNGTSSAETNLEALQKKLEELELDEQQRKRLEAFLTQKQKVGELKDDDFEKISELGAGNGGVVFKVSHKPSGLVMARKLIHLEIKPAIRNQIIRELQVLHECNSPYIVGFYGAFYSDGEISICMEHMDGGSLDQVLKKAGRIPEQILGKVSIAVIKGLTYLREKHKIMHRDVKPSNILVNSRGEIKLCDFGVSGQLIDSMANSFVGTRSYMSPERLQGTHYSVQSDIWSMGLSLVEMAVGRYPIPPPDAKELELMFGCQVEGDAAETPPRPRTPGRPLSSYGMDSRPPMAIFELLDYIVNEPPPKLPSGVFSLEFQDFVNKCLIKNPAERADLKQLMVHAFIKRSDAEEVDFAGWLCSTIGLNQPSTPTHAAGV
Please give a number only; it is taken to be in %.

Name the recorded residual activity for `O=C(O)c1cc(N=Nc2ccc(S(=O)(=O)Nc3ccccn3)cc2)ccc1O` .
91

What value of residual activity has been recorded for this entry: `NC(=O)c1c(NC(=O)C2CC2)sc2c1CCCC2`
88

Reported residual activity, compound `CCc1cncnc1N1CCN(Cc2nc3cc(C(F)(F)F)ccc3[nH]2)CC1` : ____
96

Any idea what its residual activity is? The compound is `O=S(=O)(c1ccc(F)c2nonc12)N1CCN(c2ncc(C(F)(F)F)cc2Cl)CC1`
99

Value lookup for residual activity; key = `COc1cc(C(=O)N2CCOCC2)c(F)cc1Nc1ncc(C(F)(F)F)c(NC2CC2)n1`
81

Fill in: residual activity of `C[C@H]1CCCC(=O)CCC/C=C/c2cc(O)cc(O)c2C(=O)O1` is ___
55

----------
# reported residual activity; entries follow
target: SYK (human); assay: radiometric filter-binding kinase assay; details: compound 10.0 µM
Answer with the figure and its unit, nothing else.

Some compounds with recorded residual activity:
COMPOUND | residual activity
NC1(c2ccc(-c3nc4ccn5c(=O)[nH]nc5c4cc3-c3ccccc3)cc2)CCC1 | 96%
CCCC(CCC)C(=O)O | 100%
FC(F)(F)c1ccc(-c2ccc(Oc3cncc4sc(-c5nn[nH]n5)cc34)cc2)cc1 | 102%
Oc1ccc2ccccc2c1SSc1c(O)ccc2ccccc12 | 92%

# residual activity lookup, item `CCCCCc1ccc(/C=C/[C@H](O)[C@@H](CO)NC)cc1`
92%

Look up residual activity: `CCn1c(-c2nonc2N)nc2cncc(CNC3CCNCC3)c21`
79%

So what does the record say about residual activity for `Cc1nc(-c2ccc(OCC(C)C)c(C#N)c2)sc1C(=O)O` ?
117%

Need residual activity of `O=C(Nc1ccccc1-c1cn2c(CN3CCNCC3)csc2n1)c1cnc2ccccc2n1` , thanks.
67%

----------
target: HIPK1 (human) (UniProt Q86Z02); assay: radiometric filter-binding kinase assay; conditions: compound 1.0 µM
Sequence (Q86Z02 whole entry, looked up): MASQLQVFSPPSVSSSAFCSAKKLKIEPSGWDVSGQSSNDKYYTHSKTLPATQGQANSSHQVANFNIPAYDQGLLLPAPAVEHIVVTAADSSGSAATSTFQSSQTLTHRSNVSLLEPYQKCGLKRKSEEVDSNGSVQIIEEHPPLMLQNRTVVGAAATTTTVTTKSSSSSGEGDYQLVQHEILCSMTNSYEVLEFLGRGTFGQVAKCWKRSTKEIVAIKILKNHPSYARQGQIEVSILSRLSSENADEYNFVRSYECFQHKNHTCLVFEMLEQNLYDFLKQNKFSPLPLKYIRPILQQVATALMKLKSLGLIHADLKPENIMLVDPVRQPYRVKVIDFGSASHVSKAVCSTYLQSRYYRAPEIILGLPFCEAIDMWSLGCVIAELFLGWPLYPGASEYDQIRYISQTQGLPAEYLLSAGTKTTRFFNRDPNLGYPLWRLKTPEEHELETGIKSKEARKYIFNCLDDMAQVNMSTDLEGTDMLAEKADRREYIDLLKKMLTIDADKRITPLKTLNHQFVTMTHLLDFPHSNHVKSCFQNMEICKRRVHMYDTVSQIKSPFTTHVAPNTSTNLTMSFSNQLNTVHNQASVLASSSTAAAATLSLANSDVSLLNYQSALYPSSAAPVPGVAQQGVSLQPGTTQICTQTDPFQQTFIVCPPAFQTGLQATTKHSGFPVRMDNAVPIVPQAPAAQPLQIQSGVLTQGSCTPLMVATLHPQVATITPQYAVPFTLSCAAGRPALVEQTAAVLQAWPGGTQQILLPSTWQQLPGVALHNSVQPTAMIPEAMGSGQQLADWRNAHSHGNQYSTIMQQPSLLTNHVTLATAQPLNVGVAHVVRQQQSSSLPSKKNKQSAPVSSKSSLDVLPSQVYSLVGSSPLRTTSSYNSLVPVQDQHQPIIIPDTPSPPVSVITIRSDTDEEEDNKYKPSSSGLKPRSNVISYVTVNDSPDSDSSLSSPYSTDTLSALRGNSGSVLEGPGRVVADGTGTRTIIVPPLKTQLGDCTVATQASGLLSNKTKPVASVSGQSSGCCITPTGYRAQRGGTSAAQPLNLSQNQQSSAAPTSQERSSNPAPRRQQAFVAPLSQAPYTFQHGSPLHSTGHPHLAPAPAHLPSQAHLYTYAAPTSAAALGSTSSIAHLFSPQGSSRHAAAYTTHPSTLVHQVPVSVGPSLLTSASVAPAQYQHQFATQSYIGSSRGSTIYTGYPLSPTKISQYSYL
REPORTED_PROPERTY: residual activity (%)
Unit % implied. Number only.

A selection of reference data follows.
COMPOUND | REPORTED_PROPERTY | UNITS_SYMBOL | ASSAY_RESULT
Cc1cccc(-c2nn(C(=S)Nc3ccccc3)cc2-c2ccnc3ccccc23)n1 | residual activity | % | 98
NC(=O)c1cc2c(-c3cccc(-c4ccccc4)c3)cnc(N)c2s1 | residual activity | % | 37
O=C(NOC[C@H](O)CO)c1ccc(F)c(F)c1Nc1ccc(I)cc1Cl | residual activity | % | 84
Oc1ccc2ccccc2c1SSc1c(O)ccc2ccccc12 | residual activity | % | 52

Query compound follows.
Any idea what residual activity was measured for Nc1cccc2c1CN(C1CCC(=O)NC1=O)C2=O (stereo not given) ?
92

----------
target: UniProtKB Q13627; assay: radiometric filter-binding kinase assay; settings: compound 0.1 µM
REPORTED_PROPERTY: residual activity (%)
Express it in %; write the number only.

Past entries and their recorded results:
COMPOUND | REPORTED_PROPERTY | UNITS_SYMBOL | ASSAY_RESULT
O=C(Nc1nc2cc(C(F)(F)F)cc(NC3CC3)n2n1)c1cccnc1 | residual activity | % | 92
COc1ccc2c(c1)c1c3c(c4c5ccccc5n(C)c4c1n2CC(O)CN(C)C)C(=O)NC3=O (stereo not given) | residual activity | % | 96
C=CC(=O)N1CCC[C@@H](n2nc(-c3ccc(Oc4ccccc4)cc3)c3c(N)ncnc32)C1 | residual activity | % | 112
CC1=C(CO)C(=O)O[C@@H]([C@@H](C)[C@H]2CC[C@H]3[C@@H]4C[C@H]5O[C@]56[C@@H](O)C=CC(=O)[C@]6(C)C4CC[C@]23C)C1 (stereo not given in full) | residual activity | % | 92
NC(=O)c1cc2c(-c3cccc(-c4ccccc4)c3)cnc(N)c2s1 | residual activity | % | 72

Any idea what residual activity was measured for `C/C(=C1/C(=O)Nc2ccc(NC(N)=O)cc21)c1ccc[nH]1` ?
67

If you can, please state the reported residual activity value of `CCn1c(-c2nonc2N)nc2cncc(CNC3CCNCC3)c21` .
92

Which measured residual activity value corresponds to `COc1cc(O)c2c(c1)/C=C/C[C@H](O)[C@H](O)C(=O)/C=C\C[C@H](C)OC2=O` ?
117

Look up residual activity for this compound: `COc1ccc(-n2ncc3cnc(Nc4cc(OC)c(OC)c(OCCCN5CCN(C)CC5)c4)nc32)cc1`
57

What residual activity value was documented for this compound, `CNc1nc(-c2ccc3c(N)n[nH]c3c2)cc(N2C[C@@H](C(=O)NC3CCCCC3)CC[C@H]2C)n1` ?
107
